- Tested target: Ubiquitin carboxyl-terminal hydrolase 1 (Homo sapiens)
- Procedure summary: Inhibitors of USP1/UAF1: Pilot qHTS (AID 504865); also: nearly all actives have a fitted effect of over 35% in size
- Particulars: purified USP1/UAF1, Ub-rhodamine cleavage fluorescence; series mostly up to 54.9 µM
Records with an inconclusive call do not appear. Calls of active or inactive are those of the source. Calls follow the shape of the dose curve; as a rule, active = well fitted inhibition curve with a large enough effect; inconclusive = small, poorly fitted or top-dose-only effect; inactive = flat fitted curve, though single readings scatter.
Use one of these outcomes when replying: TRUE = active, FALSE = inactive

IN: Answer briefly: the call reported for c1ccc2c(NC3CC3)nc(-c3ccoc3)nc2c1 in this assay.
OUT: FALSE

IN: Answer briefly: the call reported for COCCNc1nc(-c2ccccc2C(F)(F)F)nc2ccccc12 in this assay.
OUT: FALSE

IN: Answer briefly: the call reported for COc1cccc(-c2cncnc2NCCc2cnc[nH]2)c1 in this assay.
OUT: FALSE

IN: Answer briefly: the call reported for COc1cccc(Cn2c(=O)c(CCc3ccccc3)nc3cnc(N4CCNCC4)nc32)c1 in this assay.
OUT: FALSE

IN: Answer briefly: the call reported for Clc1ccccc1-c1nc(NCc2cccs2)c2ccccc2n1 in this assay.
OUT: TRUE

Others:
IN: Answer briefly: the call reported for COc1ccc(CNc2nc(-c3ccc(N(C)C)cc3)nc3ccccc23)c(OC)c1 in this assay.
OUT: FALSE

IN: Answer briefly: the call reported for CN(C)C(=O)c1ccc(-c2nccc(-n3ccnc3)n2)cc1 in this assay.
OUT: FALSE

IN: Answer briefly: the call reported for CC(=O)NCCNc1nc(-c2ccc3c(c2)OCO3)nc2ccccc12 in this assay.
OUT: FALSE

IN: Answer briefly: the call reported for CS(=O)(=O)Nc1cccc(-c2nc(N3CCOCC3)c3ccccc3n2)c1 in this assay.
OUT: FALSE

IN: Answer briefly: the call reported for COCCn1c(=O)c(C)nc2cnc(Oc3cccc(Cl)c3)nc21 in this assay.
OUT: FALSE

IN: Answer briefly: the call reported for C[C@@H](CCc1ccccc1)NC[C@H](O)c1ccc(O)c(C(N)=O)c1 in this assay.
OUT: FALSE
